Biological target: Gag-Pro polyprotein (Human T-cell leukemia virus 1 (strain Japan ATK-1 subtype A) (HTLV-1), UniProt P10274, L40I)
Sequence (P10274 450-574 L489I): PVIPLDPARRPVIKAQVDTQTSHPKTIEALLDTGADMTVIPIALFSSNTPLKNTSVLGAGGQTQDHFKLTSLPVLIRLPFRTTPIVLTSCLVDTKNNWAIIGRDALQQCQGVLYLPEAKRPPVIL
Assay: Inhibition of HTLV1 protease L40I mutant expressed in Escherichia coli BL21(DE3)pLysS
So I've got a bunch of compounds here, and I need their IC50 values.
Numeric answer only, unit nM assumed.

QUERY: I have this compound here, CC(=O)N[C@H](C(=O)N[C@H](C(=O)N[C@@H](Cc1ccccc1)[C@H](O)C(=O)N1CSC(C)(C)C1C(=O)NCC(C)C)C(C)(C)C)c1ccccc1 (stereo partly drawn) , and I need its recorded IC50.
RESULT: 107

QUERY: Name the reported IC50 value associated with the compound CC[C@H](C)[C@H](NC(=O)[C@@H]1N(C(=O)[C@@H](O)[C@H](Cc2ccccc2)NC(=O)[C@@H](NC(=O)[C@@H](NC(C)=O)c2ccccc2)C(C)(C)C)CSC1(C)C)C(=O)N[C@@H](CCSC)C(N)=O
RESULT: 101

QUERY: Endpoint output: IC50 of CC[C@H](C)[C@H](NC(=O)[C@@H](NC(C)=O)c1ccccc1)C(=O)N[C@@H](Cc1ccccc1)[C@H](O)C(=O)N1CSC(C)(C)[C@@H]1C(=O)N[C@H](C(=O)N[C@@H](CCSC)C(N)=O)[C@@H](C)CC . Value?
RESULT: 102

QUERY: Item under review: CC[C@H](C)[C@H](NC(=O)[C@@H]1N(C(=O)[C@@H](O)[C@H](Cc2ccccc2)NC(=O)[C@@H](NC(=O)[C@@H](NC(C)=O)c2ccccc2)C(C)(C)C)CSC1(C)C)C(=O)N[C@@H](CCC(N)=O)C(N)=O . Reported IC50?
RESULT: 84

QUERY: Which value of IC50 has been reported for CC[C@H](C)[C@H](NC(C)=O)C(=O)N[C@H](C(=O)N[C@@H](Cc1ccccc1)[C@H](O)C(=O)N1CSC(C)(C)[C@@H]1C(=O)N[C@H](C(=O)N[C@@H](CCSC)C(N)=O)[C@@H](C)CC)[C@@H](C)CC in the records?
RESULT: 88

QUERY: Endpoint output: IC50 of CC[C@H](C)[C@H](NC(C)=O)C(=O)N[C@H](C(=O)N[C@@H](Cc1ccccc1)[C@H](O)C(=O)N1CSC(C)(C)[C@@H]1C(=O)N[C@H](C(=O)N[C@@H](Cc1ccccc1)C(N)=O)[C@@H](C)CC)[C@@H](C)CC . Value?
RESULT: 95

QUERY: Report IC50 for CC[C@H](C)[C@H](NC(=O)[C@@H]1N(C(=O)[C@@H](O)[C@H](Cc2ccccc2)NC(=O)[C@@H](NC(=O)[C@@H](NC(C)=O)c2ccccc2)C(C)(C)C)CSC1(C)C)C(N)=O please.
RESULT: 144

QUERY: Requested read-out: IC50. Entry: CCCNC(=O)C1N(C(=O)[C@@H](O)[C@H](Cc2ccccc2)NC(=O)[C@@H](NC(=O)[C@@H](NC(C)=O)c2ccccc2)C(C)(C)C)CSC1(C)C (stereo partly drawn)
RESULT: 193

QUERY: What value of IC50 has been reported for the following compound? CC[C@H](C)[C@H](NC(C)=O)C(=O)N[C@H](C(=O)N[C@@H](Cc1ccccc1)[C@H](O)C(=O)N1CSC(C)(C)[C@@H]1C(=O)N[C@H](C(=O)N[C@@H](CCC(N)=O)C(N)=O)[C@@H](C)CC)[C@@H](C)CC
RESULT: 159

QUERY: Bench note: what IC50 did CC[C@H](C)[C@H](NC(C)=O)C(=O)N[C@H](C(=O)N[C@@H](Cc1ccccc1)[C@H](O)C(=O)N1CSC(C)(C)[C@@H]1C(=O)N[C@H](C(=O)N[C@@H](CCSC)C(N)=O)c1ccccc1)[C@@H](C)CC show?
RESULT: 123

QUERY: Bench note: what IC50 did CC(=O)N[C@H](C(=O)N[C@H](C(=O)N[C@@H](Cc1ccccc1)[C@H](O)C(=O)N1CSC(C)(C)C1C(=O)NCc1cccc(I)c1)C(C)(C)C)c1ccccc1 (stereo partly drawn) show?
RESULT: 473

QUERY: So what does the record say about IC50 for CC[C@H](C)[C@H](NC(=O)[C@@H](NC(C)=O)C(C)(C)C)C(=O)N[C@@H](Cc1ccccc1)[C@H](O)C(=O)N1CSC(C)(C)[C@@H]1C(=O)N[C@H](C(=O)N[C@@H](CCSC)C(N)=O)[C@@H](C)CC ?
RESULT: 201

QUERY: Tell me the measured IC50 of CC(=O)N[C@H](C(=O)N[C@H](C(=O)N[C@@H](Cc1ccccc1)[C@H](O)C(=O)N1CSC(C)(C)C1C(=O)NCC1CC1)C(C)(C)C)c1ccccc1 (stereo partly drawn) , please.
RESULT: 146
